The measured values listed here are drawn from BindingDB's records for doi:10.1021/jm300601d.

Assay: Inhibition of NHE1 in human platelet rich plasma assessed as reduction of propionate medium induced platelet swelling measured every 6 secs for 5 mins
Value kind: EC50 (nM)

Smiles structure	Endpoint unit	Assay value
CN(C)S(=O)(=O)c1ccc(C(=O)N2CCC(c3ccc(C(=O)NC(=N)N)cc3C(F)(F)F)CC2)cc1	nM	241
CC(=O)N1CCC(c2ccc(C(=O)NC(=N)N)cc2S(C)(=O)=O)CC1	nM	189
N=C(N)NC(=O)c1ccc(C2CCN(C(=O)C3CC3)CC2)c(C(F)(F)F)c1	nM	50
N=C(N)NC(=O)c1ccc(C2CCN(C(=O)c3ccc(O)cc3)CC2)c(C(F)(F)F)c1	nM	138
N=C(N)NC(=O)c1ccc(C2CCN(C(=O)c3ccc(Cl)cc3)CC2)c(C(F)(F)F)c1	nM	1130
N#Cc1ccccc1C(=O)N1CCC(c2ccc(C(=O)NC(=N)N)cc2C(F)(F)F)CC1	nM	200
Cn1ccnc1C(=O)N1CCC(c2ccc(C(=O)NC(=N)N)cc2C(F)(F)F)CC1	nM	111
CCCC(=O)N1CCC(c2ccc(C(=O)NC(=N)N)cc2C(F)(F)F)CC1	nM	201
COc1cc(C2CCN(C(C)=O)CC2)c(C(F)(F)F)cc1C(=O)NC(=N)N	nM	432
CC(=O)N1CCC(c2cc(C)c(C(=O)NC(=N)N)cc2C(F)(F)F)CC1	nM	28

* * *

Assay: Inhibition of NHE1 in human platelet rich plasma assessed as reduction of propionate medium induced platelet swelling measured every 6 secs for 5 mins
pEC50: −log10 of the molar value.

Molecule	pEC50
N=C(N)NC(=O)c1ccc(C2CCN(C(=O)C3CCCC3)CC2)c(C(F)(F)F)c1	6.38
N#Cc1ccc(C(=O)N2CCC(c3ccc(C(=O)NC(=N)N)cc3C(F)(F)F)CC2)cc1	6.82
COCC(=O)N1CCC(c2ccc(C(=O)NC(=N)N)cc2C(F)(F)F)CC1	7.32
N=C(N)NC(=O)c1ccc(C2CCN(C(=O)c3cccc(-c4cnco4)c3)CC2)c(C(F)(F)F)c1	6.45
N=C(N)NC(=O)c1ccc(C2CCN(C(=O)c3ccc(C(N)=O)cc3)CC2)c(C(F)(F)F)c1	7.44
CNS(=O)(=O)c1ccc(C(=O)N2CCC(c3ccc(C(=O)NC(=N)N)cc3C(F)(F)F)CC2)cc1	7.06
N=C(N)NC(=O)c1ccc(C2CCN(C(=O)c3ccc[nH]3)CC2)c(C(F)(F)F)c1	6.62
N=C(N)NC(=O)c1ccc(C2CCN(C(=O)c3cccnc3)CC2)c(C(F)(F)F)c1	7.49
N=C(N)NC(=O)c1ccc(C2CCN(C(=O)c3ccccc3Cl)CC2)c(C(F)(F)F)c1	6.31
CC(=O)N1CCC(c2cc(C)c(C(=O)NC(=N)N)cc2S(C)(=O)=O)CC1	7.25
N=C(N)NC(=O)c1ccc(N2CCC(NC(=O)c3ccc[nH]3)CC2)c(C(F)(F)F)c1	6.02
N=C(N)NC(=O)c1ccc(C2CCN(C(=O)c3ccc(-c4cnco4)cc3)CC2)c(C(F)(F)F)c1	6.43
CS(=O)(=O)c1ccc(C(=O)N2CCC(c3ccc(C(=O)NC(=N)N)cc3C(F)(F)F)CC2)cc1	7.03
CS(=O)(=O)c1ccccc1C(=O)N1CCC(c2ccc(C(=O)NC(=N)N)cc2C(F)(F)F)CC1	6.57
N=C(N)NC(=O)c1ccc(N2CCN(C(=O)c3ccc[nH]3)CC2)c(C(F)(F)F)c1 [SABIPORIDE]	6.76
CNC(=O)c1ccc(C(=O)N2CCC(c3ccc(C(=O)NC(=N)N)cc3C(F)(F)F)CC2)cc1	6.67
N=C(N)NC(=O)c1ccc(C2CCN(C(=O)c3ccc(S(N)(=O)=O)cc3)CC2)c(C(F)(F)F)c1	7.64
N=C(N)NC(=O)c1ccc(N2CCC(NC(=O)c3ccc[nH]3)C2)c(C(F)(F)F)c1 (stereo unspecified)	5.80
CN(C)C(=O)c1ccc(C(=O)N2CCC(c3ccc(C(=O)NC(=N)N)cc3C(F)(F)F)CC2)cc1	7.11
N=C(N)NC(=O)c1ccc(C2CCN(C(=O)c3ccc(F)cc3)CC2)c(C(F)(F)F)c1	6.74
N=C(N)NC(=O)c1ccc(N2CCCC(NC(=O)c3ccc[nH]3)C2)c(C(F)(F)F)c1 (stereo unspecified)	5.46
